experiment: Rat liver microsomal metabolic stability; type: in vitro ADME; conditions: rat liver microsomes, calculated from T1/2, fu defaulted to 1; read-out: CL(liver)
Listed compounds paired with reported CLint scaled at 1 µM
Remember to follow the number with its unit.

# compound Cc1c([C@@H](C)Nc2nnc(N3CCN(C(C)C)CC3)c3cc(=O)n(C4(C)CC4)cc23)cccc1C(F)(F)F ; its CLint scaled at 1 µM = 0.761 L/h/kg

Just so you know, measured CLint scaled at 1 µM for C[C@@H](Nc1nnc(N2CCC2)c2cc(=O)n(C3CC3)cc12)c1cccc(C(F)F)c1F came out at 1.62 L/h/kg

The value of CLint scaled at 1 µM measured for the compound C[C@@H](Nc1nnc(N2CCN(C(C)(C)C)CC2)c2cc(=O)n(C3CC(F)(F)C3)cc12)c1cccc(C(F)F)c1F turned out to be 0.835 L/h/kg

Record CNc1nnc(N[C@H](C)c2cccc(C(F)(F)F)c2C)c2cn(C3(C)CC3)c(=O)cc12 . Reported CLint scaled at 1 µM: 1.06 L/h/kg
